B1: ADD1 (parent)
chain: GEGTGSPPKWQIGEQEFEALMRML

- Variants of: B1
- assay-info: protein stability index of a GFP-peptide fusion (GPS, HEK-293T) (PSI 1-6); higher = more stable;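 note: lentivirally expressed fusions sorted by FACS into six bins by GFP to DsRed ratio, PSI derived from sequencing read proportions per bin multiplied by bin number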
- condition-info: c terminus: a fixed tail appended
Reported protein stability index values are given for each entry in this list.
endpoint-label: protein stability index

variant_identifier=L20F result=3.07
variant_identifier=E16S result=3.06
variant_identifier=Q15G result=2.99
variant_identifier=G5Y result=3.02

These measurements were taken from the supplement of paper PMC10567573.
